Target: TNFα (Homo sapiens)
Assay: TNF-Induced HEK-Blue Assay
Type: cell-based
Conditions: HEK-Blue-CD40L cells, NF-kB-driven secreted alkaline phosphatase reporter; TNFα 0.5 ng/ml; 18 h; read-out: TNF induced HEK-Blue assay IC50 value
pIC50: −log10 of the molar value. Positions of bridges follow the written chain, without caps; N, C: chain ends. Non-standard residues stand in square brackets, D forms with d. Residues, ends and D or L forms follow the SMILES beside them. Ala(morpholin-4-yl) = N[C@@H](CN1CCOCC1)C(=O)O; Bip = N[C@@H](Cc1ccc(-c2ccccc2)cc1)C(=O)O; Val(3-OH) = CC(C)(O)[C@H](N)C(=O)O; 3Pal = N[C@@H](Cc1cccnc1)C(=O)O; Sar = CNCC(=O)O
property_name: pIC50

[[record]]
compound = "CC(C)C[C@@H]1NC(=O)[C@H](CCCNC(=N)N)NC(=O)[C@H](C(C)C)NC(=O)[C@@H]2CCCN2C(=O)[C@H](C(C)C)NC(=O)[C@H](CCCNC(=N)N)NC(=O)[C@H](CC(=O)O)NC(=O)[C@H](Cc2ccc(O)cc2)NC(=O)CN(C)C(=O)[C@H](Cc2ccc(-c3ccccc3)cc2)NC(=O)[C@H](Cc2ccc(-c3ccccc3)cc2)NC(=O)[C@H](CN2CCOCC2)NC(=O)CSC[C@@H](C(=O)NCC(N)=O)NC1=O [Example 47] ({CH2CO}-[Ala(morpholin-4-yl)][Bip][Bip][Sar]YDRVPVRLCG-NH2; thioether N-13)"
test_target = "TNFα (Homo sapiens)"
property_name = "pIC50"
measured_result = "6.70 to 7.30"

[[record]]
compound = "CC(C)C[C@@H]1NC(=O)[C@H](Cc2ccc(O)cc2)NC(=O)[C@H](C(C)C)NC(=O)[C@@H]2CCCN2C(=O)[C@H](C(C)C)NC(=O)[C@H](CCCNC(=N)N)NC(=O)[C@H](CC(N)=O)NC(=O)[C@@H]2CCCN2C(=O)CN(C)C(=O)[C@H](Cc2ccc(-c3ccccc3)cc2)NC(=O)[C@H](Cc2ccc(-c3ccccc3)cc2)NC(=O)[C@H](CN2CCOCC2)NC(=O)CSC[C@@H](C(=O)NCC(N)=O)NC1=O [Example 133] ({CH2CO}-[Ala(morpholin-4-yl)][Bip][Bip][Sar]PNRVPVYLCG-NH2; thioether N-13)"
test_target = "TNFα (Homo sapiens)"
property_name = "pIC50"
measured_result = "5.70 to 6.70"

[[record]]
compound = "CC(C)C[C@@H]1NC(=O)[C@H](Cc2ccc(O)cc2)NC(=O)[C@H](C(C)C)NC(=O)[C@H](Cc2cccnc2)NC(=O)[C@H](C(C)C)NC(=O)[C@H](CCCNC(=N)N)NC(=O)[C@H](CC(=O)O)NC(=O)[C@H](Cc2ccc(O)cc2)NC(=O)CN(C)C(=O)[C@H](Cc2ccc(-c3ccccc3)cc2)NC(=O)[C@H](Cc2ccc(-c3ccccc3)cc2)NC(=O)[C@H](CN2CCOCC2)NC(=O)CSC[C@@H](C(=O)NCC(N)=O)NC1=O [Example 107] ({CH2CO}-[Ala(morpholin-4-yl)][Bip][Bip][Sar]YDRV[3Pal]VYLCG-NH2; thioether N-13)"
test_target = "TNFα (Homo sapiens)"
property_name = "pIC50"
measured_result = "6.70 to 7.30"

[[record]]
compound = "CC(C)C[C@@H]1NC(=O)[C@H](Cc2ccc(O)cc2)NC(=O)[C@H](C(C)C)NC(=O)CN(C)C(=O)[C@H](C(C)C)NC(=O)[C@H](CCCNC(=N)N)NC(=O)[C@H](CC(=O)O)NC(=O)[C@H](Cc2ccc(O)cc2)NC(=O)CN(C)C(=O)[C@H](Cc2ccc(-c3ccccc3)cc2)NC(=O)[C@H](Cc2ccc(-c3ccccc3)cc2)NC(=O)[C@H](C(C)(C)O)NC(=O)CSC[C@@H](C(=O)NCC(N)=O)NC1=O [Example 140] ({CH2CO}-[Val(3-OH)][Bip][Bip][Sar]YDRV[Sar]VYLCG-NH2; thioether N-13)"
test_target = "TNFα (Homo sapiens)"
property_name = "pIC50"
measured_result = "5.70 to 6.70"


* * *

pIC50 for assorted molecules
Biological target: TNFα (Homo sapiens)
Assay: TNF-Induced HEK-Blue Assay
Format: cell-based
Settings: HEK-Blue-CD40L cells, NF-kB-driven secreted alkaline phosphatase reporter; TNFα 0.5 ng/ml; 18 h; read-out: TNF induced HEK-Blue assay IC50 value
pIC50: −log10 of the molar value. Positions of bridges follow the written chain, without caps; N, C: chain ends. Non-standard residues stand in square brackets, D forms with d. Residues, ends and D or L forms follow the SMILES beside them. Ala(morpholin-4-yl) = N[C@@H](CN1CCOCC1)C(=O)O; Bip = N[C@@H](Cc1ccc(-c2ccccc2)cc1)C(=O)O; Sar = CNCC(=O)O
property_name: pIC50

[[record]]
molecule = "CC(C)C[C@@H]1NC(=O)[C@H](CCCNC(=N)N)NC(=O)[C@H](C(C)C)NC(=O)[C@@H]2CCCN2C(=O)[C@H](C(C)C)NC(=O)[C@@H](CCCNC(=N)N)NC(=O)[C@H](CC(=O)O)NC(=O)[C@H](Cc2ccc(O)cc2)NC(=O)CNC(=O)[C@H](Cc2ccc(-c3ccccc3)cc2)NC(=O)[C@H](Cc2ccc(-c3ccccc3)cc2)NC(=O)[C@H](CN2CCOCC2)NC(=O)CSC[C@@H](C(=O)NCC(N)=O)NC1=O [Example 132] ({CH2CO}-[Ala(morpholin-4-yl)][Bip][Bip]GYD[dR]VPVRLCG-NH2; thioether N-13)"
property_name = "pIC50"
measured_result = "6.70 to 7.30"

[[record]]
molecule = "CC(C)C[C@@H]1NC(=O)[C@H](CCCNC(=N)N)NC(=O)[C@H](C(C)C)NC(=O)[C@@H]2CCCN2C(=O)[C@H](C(C)C)NC(=O)[C@@H](CCCNC(=N)N)NC(=O)[C@H](CC(=O)O)NC(=O)[C@H](Cc2ccc(O)cc2)NC(=O)CN(C)C(=O)[C@H](Cc2ccc(-c3ccccc3)cc2)NC(=O)[C@H](Cc2ccc(-c3ccccc3)cc2)NC(=O)[C@H](CN2CCOCC2)NC(=O)CSC[C@@H](C(=O)NCC(N)=O)NC1=O [Example 76] ({CH2CO}-[Ala(morpholin-4-yl)][Bip][Bip][Sar]YD[dR]VPVRLCG-NH2; thioether N-13)"
property_name = "pIC50"
measured_result = "> 7.30"


* * *

Molecular target: TNFα (Homo sapiens, UniProt P01375)
Sequence (P01375 77-233 limits assumed): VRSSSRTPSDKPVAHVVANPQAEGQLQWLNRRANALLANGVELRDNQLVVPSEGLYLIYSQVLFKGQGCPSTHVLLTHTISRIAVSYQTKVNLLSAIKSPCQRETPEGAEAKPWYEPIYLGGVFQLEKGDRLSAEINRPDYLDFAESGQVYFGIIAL
Assay: TNF-Induced HEK-Blue Assay
Assay type: cell-based
Details: HEK-Blue-CD40L cells, NF-kB-driven secreted alkaline phosphatase reporter; TNFα 0.5 ng/ml; 18 h; read-out: TNF induced HEK-Blue assay IC50 value
Positions of bridges follow the written chain, without caps; N, C: chain ends. Non-standard residues stand in square brackets, D forms with d. Residues, ends and D or L forms follow the SMILES beside them. Bip(4'-COOH) = N[C@@H](Cc1ccc(-c2ccc(C(=O)O)cc2)cc1)C(=O)O; Ala(morpholin-4-yl) = N[C@@H](CN1CCOCC1)C(=O)O; Bip = N[C@@H](Cc1ccc(-c2ccccc2)cc1)C(=O)O; Hyp = O=C(O)[C@@H]1C[C@@H](O)CN1; Sar = CNCC(=O)O
property_name: IC50

[[record]]
compound = "CC(C)C[C@@H]1NC(=O)[C@H](CCCNC(=N)N)NC(=O)[C@H](C(C)C)NC(=O)[C@@H]2CCCN2C(=O)[C@H](C(C)C)NC(=O)[C@H](CCCNC(=N)N)NC(=O)[C@H](CC(=O)O)NC(=O)[C@@H]2C[C@@H](O)CN2C(=O)CN(C)C(=O)[C@H](Cc2ccc(-c3ccccc3)cc2)NC(=O)[C@H](Cc2ccc(-c3ccccc3)cc2)NC(=O)[C@H](Cc2ccccc2)NC(=O)CSC[C@@H](C(=O)NCC(N)=O)NC1=O [Example 44] ({CH2CO}-F[Bip][Bip][Sar][Hyp]DRVPVRLCG-NH2; thioether N-13)"
measured_result = "200 to 2000 nM"

[[record]]
compound = "CC(C)C[C@@H]1NC(=O)[C@H](CCCNC(=N)N)NC(=O)[C@H](C(C)C)NC(=O)[C@@H]2CCCN2C(=O)[C@H](C(C)C)NC(=O)[C@H](CCCNC(=N)N)NC(=O)[C@H](CC(=O)O)NC(=O)[C@@H]2CCCN2C(=O)CN(C)C(=O)[C@H](Cc2ccc(-c3ccccc3)cc2)NC(=O)[C@H](Cc2ccc(-c3ccc(C(=O)O)cc3)cc2)NC(=O)[C@H](CN2CCOCC2)NC(=O)CSC[C@@H](C(=O)NCC(N)=O)NC1=O [Example 120] ({CH2CO}-[Ala(morpholin-4-yl)][Bip(4'-COOH)][Bip][Sar]PDRVPVRLCG-NH2; thioether N-13)"
measured_result = "50 to 200 nM"

